# Measured target: truncated form of PTP1 B (corresponding to the first 321 amino acids) (Homo sapiens, UniProt P18031)
# Construct: truncated form of PTP1 B (corresponding to the first 321 amino acids)
# Assay explanation: Inhibition of PTP1B, p-nitrophenyl phosphate as substrate, enzyme kinetics
# Condition description: truncated PTP1B expressed in E. coli; substrate p-nitrophenyl phosphate 0.16 to 10 mM; sodium acetate pH 5.5; 25° C. for 60 minutes; absorbance at 405 nm
# Procedure: The compounds are evaluated for biological activity with a truncated form of PTP1 B (corresponding to the first 321 amino acids), which was expressed in E. coli and purified to apparent homogeneity using published procedures well-known to those skilled in the art. […] The enzyme activity was determined by measurement of the absorbance at 405 nm with appropriate corrections for absorbance at 405 nm of the compounds and p-nitrophenyl phosphate. […] Inhibition is expressed as Ki values in μM.
Readout name: Ki (µM)

O=C(O)C(=O)Nc1sc2c(c1C(=O)O)CCNC2CNC(=O)c1c(O)ccc2ccccc12 (centres unmarked) [Example 14] ... 0.07
CCOC(=O)C(=O)Nc1sc2c(c1C(=O)O)CCNC2CNC(=O)c1cc2cc(O)ccc2[nH]1 (centres unmarked) [Example 38] ... 0.063

I: O=C(O)C(=O)Nc1sc2c(c1C(=O)O)CCN[C@H]2CNCc1ccc(Oc2ccccc2)cc1 [Example 28]
II: O=C(O)C(=O)Nc1sc2c(c1C(=O)O)CCN[C@H]2CNC(=O)c1cc2cc(O)ccc2[nH]1 [Example 25]
III: CC(=O)NCC1NCCc2c1sc(NC(=O)C(=O)O)c2C(=O)O (centres unmarked) [Example 31]
IV: O=C(O)C(=O)Nc1sc2c(c1C(=O)O)CCNC2CNC(=O)c1cccc2ccccc12 (centres unmarked) [Example 12]
V: O=C(O)C(=O)Nc1sc2c(c1C(=O)O)CCN[C@H]2CNC(=O)c1cc2ccccc2[nH]1 [Example 37]
Number of molecules to sort: 5. Sort criterion: Ki, ascending. A ranking is expressed here by listing the labels in the requested order.
V, I, IV, III, II

---

# Measured target: truncated form of PTP1 B (corresponding to the first 321 amino acids) (Homo sapiens)
# Construct: truncated form of PTP1 B (corresponding to the first 321 amino acids)
# Assay explanation: Inhibition of PTP1B, p-nitrophenyl phosphate as substrate, enzyme kinetics
# Condition description: truncated PTP1B expressed in E. coli; substrate p-nitrophenyl phosphate 0.16 to 10 mM; sodium acetate pH 5.5; 25° C. for 60 minutes; absorbance at 405 nm
Readout name: Ki (nM)

O=C(CCc1ccc2ccccc2c1)NCC1NCCc2c1sc(NC(=O)C(=O)O)c2C(=O)O (stereo not drawn) [Example 13] ... 70
CC(=O)Nc1ccc(S(=O)(=O)NC[C@@H]2NCCc3c2sc(NC(=O)C(=O)O)c3C(=O)O)cc1 [Example 22] ... 91
O=C(O)C(=O)Nc1sc2c(c1C(=O)O)CCN[C@H]2CNC(=O)c1ccc2nc[nH]c2c1 [Example 24] ... 640

P: CCOC(=O)N1CCc2c(sc(NC(=O)C(=O)O)c2C(=O)O)C1CNC(=O)c1cc2cc(O)ccc2[nH]1 (stereo not drawn) [Example 42]
Q: O=C(O)C(=O)Nc1sc2c(c1C(=O)O)CCNC2CNC(=O)c1ccccc1 (stereo not drawn) [Example 1]
Short answer wanted: higher Ki, P or Q ? Identify your pick by its label.
Q
(Q: 490 nM, P: 120 nM)

---

# Measured target: truncated form of PTP1 B (corresponding to the first 321 amino acids) (Homo sapiens, UniProt P18031)
# Construct: truncated form of PTP1 B (corresponding to the first 321 amino acids)
# Sequence (P18031 1-321): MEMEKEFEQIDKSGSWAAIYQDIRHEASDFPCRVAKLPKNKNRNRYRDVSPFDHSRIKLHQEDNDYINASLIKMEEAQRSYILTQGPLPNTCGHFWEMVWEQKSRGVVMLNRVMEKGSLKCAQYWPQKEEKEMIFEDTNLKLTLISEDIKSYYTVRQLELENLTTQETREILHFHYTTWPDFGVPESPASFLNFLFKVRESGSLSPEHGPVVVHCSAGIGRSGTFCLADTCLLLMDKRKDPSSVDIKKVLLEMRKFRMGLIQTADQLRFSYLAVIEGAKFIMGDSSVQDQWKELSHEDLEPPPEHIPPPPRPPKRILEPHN
# Assay explanation: Inhibition of PTP1B, p-nitrophenyl phosphate as substrate, enzyme kinetics
# Condition description: truncated PTP1B expressed in E. coli; substrate p-nitrophenyl phosphate 0.16 to 10 mM; sodium acetate pH 5.5; 25° C. for 60 minutes; absorbance at 405 nm
Readout name: Ki (nM)

O=C(O)C(=O)Nc1sc2c(c1C(=O)O)CCN[C@@H]2CNC(=O)c1cn(Cc2ccccc2)c2ccccc12 ... 2100
CCOc1cccc2cc(C(=O)NC[C@@H]3NCCc4c3sc(NC(=O)C(=O)O)c4C(=O)O)oc12 ... 110
O=C(O)C(=O)Nc1sc2c(c1C(=O)O)CCNC2CNC(=O)c1ccc(NC(=O)c2ccccc2)cc1 (stereo not shown) ... 330
O=C(O)C(=O)Nc1sc2c(c1C(=O)O)CCN[C@@H]2CNC(=O)c1cc2cc(O)ccc2[nH]1 ... 2600

P: CCOC(=O)c1c(NC(=O)C(=O)OCC(C)(C)C)sc2c1CCNC2CNC(=O)c1cc2cc(O)ccc2[nH]1 (stereo not shown)
Q: O=C(O)C(=O)Nc1sc2c(c1C(=O)O)CCNC2CNC(=O)c1cn(Cc2ccccc2)c2ccccc12 (stereo not shown)
Parameter metric = Ki. Return the lower-valued option from P and Q . Identify your pick by its label.
Q
(Q: 70 nM, P: 1300 nM)

A: O=C(O)C(=O)Nc1sc2c(c1C(=O)O)CCNC2CNC(=O)c1ccc(Cc2ccccc2)cc1 (stereo not shown)
B: O=C(NC[C@@H]1NCCc2c1sc(NC(=O)C(=O)O)c2C(=O)O)Nc1ccc(Oc2ccccc2)cc1
C: CC(C)(N)CCCC(=O)NCC1NCCc2c1sc(NC(=O)C(=O)O)c2C(=O)O (stereo not shown)
Arrange these compounds by their Ki, starting with the largest number. A ranking is expressed here by listing the labels in the requested order.
A, C, B

1: O=C(O)C(=O)Nc1sc2c(c1C(=O)O)CCN[C@H]2CNC(=O)c1ccc(-c2cccc(-c3ccccc3)c2)cc1
2: CCOC(=O)c1c(NC(=O)C(=O)O)sc2c1CCNC2CNC(=O)c1cc2cc(O)ccc2[nH]1 (stereo not shown)
Short answer wanted: higher Ki, 1 or 2 ? Identify your pick by its label.
2
(2: 900 nM, 1: 42 nM)

I: CC(=O)OCOC(=O)Oc1ccc2[nH]c(C(=O)NC[C@H]3c4sc(NC(=O)C(=O)O)c(C(=O)O)c4CCN3C(=O)OCOC(C)=O)cc2c1
II: O=C(O)C(=O)Nc1sc2c(c1C(=O)O)CCN[C@H]2CNC(=O)c1cc2cc(F)ccc2[nH]1
Parameter metric = Ki. Return the lower-valued option from I and II . Identify your pick by its label.
II
